Each record here notes measured percent inhibition of viability.
System: KHYG-1 (IL-2 2.5 ng/mL);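 further: normalised to DMSO-only wells as negative and benzethonium chloride as positive control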
method_notes: percent inhibition of viability; higher = more inhibition
experimental_setup: 72 h; 10000 nM
Just the number plus its unit, please.

Study these solved cases before continuing.
input: Please report the measured percent inhibition of viability for Cn1c(CCCC(=O)O)nc2cc(N(CCCl)CCCl)ccc21 [Bendamustine] (max concentration tested 10000 nM)
output: 17.1%

input: Please report the measured percent inhibition of viability for CS(=O)(=O)N1CCN(Cc2cc3nc(-c4cccc5[nH]ncc45)nc(N4CCOCC4)c3s2)CC1 [Pictilisib] (max concentration tested 10000 nM)
output: 62.5%

Now turn to the next compound.
input: Please report the measured percent inhibition of viability for CO[C@H](C(=O)[C@@H](O)[C@@H](C)O)[C@@H]1Cc2cc3cc(O[C@H]4C[C@@H](O[C@@H]5C[C@@H](O)[C@H](O)[C@@H](C)O5)[C@H](O)[C@@H](C)O4)c(C)c(O)c3c(O)c2C(=O)[C@H]1O[C@H]1C[C@@H](O[C@@H]2C[C@@H](O)[C@@H](O[C@@H]3C[C@](C)(O)[C@H](O)[C@@H](C)O3)[C@@H](C)O2)[C@H](O)[C@@H](C)O1 [Plicamycin] (max concentration tested 10000 nM)
output: 110%
